test system: SK-BR-3; test: SRB colorimetric assay of cell growth and viability, SK-BR-3; type: cell-based, human; conditions: 48 hours exposure
Kindly supply the reported TGI SK-BR-3 values for the records listed here.
One number for each entry, in Molar.

Compound	Tested system	Quantity unit	TGI SK-BR-3
C/C=C1\NC(=O)[C@H](Cc2ccccc2)NC(=O)[C@@H](C(C)C)NC(=O)[C@@H]([C@@H](C)CC)NC(=O)[C@H](NC(=O)[C@H](NC(=O)[C@H](CCCN)NC(=O)[C@H]2CCCN2C(=O)[C@H](NC(=O)[C@@H](NC(=O)[C@@H](NC(=O)[C@H](NC(=O)c2ccc(C(F)(F)F)cc2)C(C)C)[C@@H](C)O)C(C)C)C(C)C)[C@@H](C)CC)[C@@H](C)OC(=O)[C@H](C(C)C)NC1=O [Compound 21, [p-CF3Bza^14]-KF]	SK-BR-3	Molar	2.46E−07

Next compound, please.
Can you look up the measured TGI SK-BR-3 of C/C=C1\NC(=O)[C@H](Cc2ccccc2)NC(=O)[C@@H](C(C)C)NC(=O)[C@@H]([C@@H](C)CC)NC(=O)[C@H](NC(=O)[C@H](NC(=O)[C@H](CCCN)NC(=O)[C@H]2CCCN2C(=O)[C@H](NC(=O)[C@@H](NC(=O)[C@@H](NC(=O)[C@H](NC(=O)c2ccc(C)cc2)C(C)C)[C@@H](C)O)C(C)C)C(C)C)[C@@H](C)CC)[C@@H](C)OC(=O)[C@H](C(C)C)NC1=O [Compound 19, [p-MeBza^14]-KF] for me?
3.77E−07

Data provenance is patent US20070117743A1.
